Hello, the source for this data is BindingDB's records for doi:10.1021/acsmedchemlett.6b00438, in case you need it.

Target: Phosphatidylinositol 3-kinase regulatory subunit alpha/4,5-bisphosphate 3-kinase catalytic subunit delta isoform (Homo sapiens, UniProt P27986+O00329)
Sequence (P27986 whole entry, canonical isoform): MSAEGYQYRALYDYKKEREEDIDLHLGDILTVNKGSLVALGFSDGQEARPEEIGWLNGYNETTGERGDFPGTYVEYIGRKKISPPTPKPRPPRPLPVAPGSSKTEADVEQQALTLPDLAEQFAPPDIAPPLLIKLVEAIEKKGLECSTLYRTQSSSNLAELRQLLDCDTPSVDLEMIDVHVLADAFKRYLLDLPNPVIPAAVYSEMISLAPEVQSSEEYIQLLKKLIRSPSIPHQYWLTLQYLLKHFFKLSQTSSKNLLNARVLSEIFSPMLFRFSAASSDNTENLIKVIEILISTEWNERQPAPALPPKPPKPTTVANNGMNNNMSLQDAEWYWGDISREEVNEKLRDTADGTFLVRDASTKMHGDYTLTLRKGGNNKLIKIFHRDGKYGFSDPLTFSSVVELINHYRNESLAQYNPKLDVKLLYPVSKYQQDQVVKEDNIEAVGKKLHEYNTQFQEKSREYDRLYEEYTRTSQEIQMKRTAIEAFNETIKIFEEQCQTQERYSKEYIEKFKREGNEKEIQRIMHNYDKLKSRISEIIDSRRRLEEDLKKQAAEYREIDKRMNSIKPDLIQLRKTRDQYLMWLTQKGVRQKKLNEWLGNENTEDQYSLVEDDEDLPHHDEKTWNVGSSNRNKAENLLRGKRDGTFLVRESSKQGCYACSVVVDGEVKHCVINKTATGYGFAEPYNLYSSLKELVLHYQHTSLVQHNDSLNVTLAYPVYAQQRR
Sequence (O00329 whole entry, canonical isoform): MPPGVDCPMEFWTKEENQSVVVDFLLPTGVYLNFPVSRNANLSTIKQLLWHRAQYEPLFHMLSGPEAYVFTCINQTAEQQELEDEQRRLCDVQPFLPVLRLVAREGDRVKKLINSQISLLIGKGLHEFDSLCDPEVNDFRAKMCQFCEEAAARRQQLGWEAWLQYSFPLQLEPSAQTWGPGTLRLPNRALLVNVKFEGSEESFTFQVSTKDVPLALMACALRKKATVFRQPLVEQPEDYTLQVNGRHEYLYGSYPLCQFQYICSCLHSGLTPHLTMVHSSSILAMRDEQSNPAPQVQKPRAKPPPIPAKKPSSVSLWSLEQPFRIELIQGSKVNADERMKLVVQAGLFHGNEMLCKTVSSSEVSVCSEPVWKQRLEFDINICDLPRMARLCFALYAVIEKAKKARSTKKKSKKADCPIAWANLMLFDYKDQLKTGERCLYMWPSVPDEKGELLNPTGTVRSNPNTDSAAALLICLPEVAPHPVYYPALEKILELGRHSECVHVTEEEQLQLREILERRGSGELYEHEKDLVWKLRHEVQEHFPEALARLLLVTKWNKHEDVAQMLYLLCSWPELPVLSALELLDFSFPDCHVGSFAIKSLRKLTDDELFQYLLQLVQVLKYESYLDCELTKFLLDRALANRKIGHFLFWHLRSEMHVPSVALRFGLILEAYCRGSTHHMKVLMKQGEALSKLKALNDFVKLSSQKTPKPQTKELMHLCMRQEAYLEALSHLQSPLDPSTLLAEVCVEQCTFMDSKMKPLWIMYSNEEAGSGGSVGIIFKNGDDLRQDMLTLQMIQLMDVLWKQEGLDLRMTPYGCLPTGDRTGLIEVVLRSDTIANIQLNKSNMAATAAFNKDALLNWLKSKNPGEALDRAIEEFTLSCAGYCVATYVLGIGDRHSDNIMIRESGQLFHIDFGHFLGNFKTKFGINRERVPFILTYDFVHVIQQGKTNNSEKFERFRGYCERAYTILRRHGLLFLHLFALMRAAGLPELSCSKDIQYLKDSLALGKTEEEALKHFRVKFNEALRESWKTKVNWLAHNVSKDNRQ
Experiment: Inhibition of full length recombinant human N-terminal His6-tagged PI3K p110delta/human p85alpha expressed in baculovirus infected sf21 cells using PIP2 as substrate preincubated for 30 mins followed by substrate addition by HTRF assay
readout: IC50

> print(dat)
                                   compound  data.value
1  N#Cc1c(N)ncnc1NC(CC(F)(F)F)c1nn2cccc2c(=O)n1-c1ccccc1 (stereo unspecified)       17 nM

----------
Target: Phosphatidylinositol 4,5-bisphosphate 3-kinase catalytic subunit delta isoform (Homo sapiens, UniProt O00329)
Sequence (O00329 whole entry, canonical isoform): as above
Assay: Inhibition of PI3Kdelta in human THP1 cells assessed as reduction in MCSF-stimulated akt phosphorylation at Thr308 preincubated for 30 mins followed by MCSF stimulation for 3 mins by ELISA
readout: IC50 (nM)

> print(dat)
                                   compound  readout  data.value
1  N#Cc1c(N)ncnc1NC(CC(F)(F)F)c1nn2cccc2c(=O)n1-c1ccccc1 (stereo unspecified)     IC50          51
